Assayed System: MyD88^TIR (Homo sapiens)
Construct: MyD88 (residues 148–296); 6xHis; made in house; host or cells: E. coli BL21 (DE3)
Sequence (Q99836 148-296): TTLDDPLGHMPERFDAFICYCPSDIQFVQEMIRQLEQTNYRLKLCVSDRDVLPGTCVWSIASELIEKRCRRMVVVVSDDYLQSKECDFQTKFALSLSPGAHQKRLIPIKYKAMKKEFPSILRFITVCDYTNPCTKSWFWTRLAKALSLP
Method Notes: T‐Surf phage library (P8 and P3) selection against MyD88^TIR, four rounds, NGS read counts
Type: binding
Condition Parameters: P3_MyD88: rank by count before grouping
Assign Rank (before) to each entry below.
Could you respond with only the numeric value?

(Q) I have this sequence here, "DTKLKKGESIAPERLP" , and I need its recorded Rank (before).
(A) 973

(Q) I have this sequence here, "SSFREALWRLLELSKN" , and I need its recorded Rank (before).
(A) 3222

(Q) I have this sequence here, "NELVKVWSSKANRLVG" , and I need its recorded Rank (before).
(A) 3447

(Q) I have this sequence here, "LNVESWRQALERAGKL" , and I need its recorded Rank (before).
(A) 2402

(Q) I have this sequence here, "LKEEHCHQALEKAGKL" , and I need its recorded Rank (before).
(A) 2535

(Q) I have this sequence here, "YTAMTNSGFHTFRGND" , and I need its recorded Rank (before).
(A) 1711

(Q) I have this sequence here, "NQWRNALYEAANLS" , and I need its recorded Rank (before).
(A) 1269

(Q) I have this sequence here, "YAFTVHLHRYLVQRGG" , and I need its recorded Rank (before).
(A) 1482

(Q) I have this sequence here, "SSCREGLWRLLELSNK" , and I need its recorded Rank (before).
(A) 3260

(Q) I have this sequence here, "LKVESWRQALEKAGN" , and I need its recorded Rank (before).
(A) 1081

(Q) I have this sequence here, "LSRVPSVHDFRGLMSI" , and I need its recorded Rank (before).
(A) 2389

(Q) I have this sequence here, "NELVHEISKKMKIFATI" , and I need its recorded Rank (before).
(A) 3443

(Q) I have this sequence here, "DTILEKVQSIAPELLR" , and I need its recorded Rank (before).
(A) 2092

(Q) I have this sequence here, "YAFTGHLHRYLVQPGESVC" , and I need its recorded Rank (before).
(A) 1515

(Q) I have this sequence here, "KNLFNELVHVWSSKANSLVG" , and I need its recorded Rank (before).
(A) 800

(Q) I have this sequence here, "EWIREQLRPALKERL" , and I need its recorded Rank (before).
(A) 995

(Q) I have this sequence here, "SSGRECLWRLLELRKK" , and I need its recorded Rank (before).
(A) 3270

(Q) I have this sequence here, "DTKLKKGRKHCAGTAA" , and I need its recorded Rank (before).
(A) 2099

(Q) I have this sequence here, "KWFWDKLKYALPHRYEP" , and I need its recorded Rank (before).
(A) 790

(Q) I have this sequence here, "LVAHEISKKMKIFRP" , and I need its recorded Rank (before).
(A) 2302

(Q) I have this sequence here, "KNLFNELVSKNIRTL" , and I need its recorded Rank (before).
(A) 542

(Q) I have this sequence here, "SSFRQGLWRLRELSKK" , and I need its recorded Rank (before).
(A) 3229

(Q) I have this sequence here, "AVDKKTDKIQTPRKNA" , and I need its recorded Rank (before).
(A) 1938

(Q) I have this sequence here, "YTALTNRGFHTFLDND" , and I need its recorded Rank (before).
(A) 1631

(Q) I have this sequence here, "NELVHEWSSKANSVVG" , and I need its recorded Rank (before).
(A) 3442

(Q) I have this sequence here, "YYLDPSHLRKQRGEVD" , and I need its recorded Rank (before).
(A) 1439

(Q) I have this sequence here, "SRFREGLWPLLELSKK" , and I need its recorded Rank (before).
(A) 3107

(Q) I have this sequence here, "SRDYASSPWALDELVL" , and I need its recorded Rank (before).
(A) 3095

(Q) I have this sequence here, "DHHLDLPRGKAINRKFW" , and I need its recorded Rank (before).
(A) 355

(Q) I have this sequence here, "SSFLQHPWRLQKLSKK" , and I need its recorded Rank (before).
(A) 3123

(Q) I have this sequence here, "YTALTNSGFHTFLDNY" , and I need its recorded Rank (before).
(A) 1665

(Q) I have this sequence here, "YAFTGHLHSYLVQRSV" , and I need its recorded Rank (before).
(A) 1530

(Q) I have this sequence here, "YLKWGYPWFWDRLP" , and I need its recorded Rank (before).
(A) 572

(Q) I have this sequence here, "YAFTGHLHHALRLNKIETF" , and I need its recorded Rank (before).
(A) 278

(Q) I have this sequence here, "SSFRECLWRLEELSKK" , and I need its recorded Rank (before).
(A) 3136

(Q) I have this sequence here, "LSRVPGVHDFRGLVDI" , and I need its recorded Rank (before).
(A) 2377

(Q) I have this sequence here, "RSFREGPWRLLELSKK" , and I need its recorded Rank (before).
(A) 2694
